Target: Norway rat Vesicular Monoamine Transporter (VMAT2), neurotransmitter transporter, Slc18a2 (gene 25549)
Assay: NVS_TR_rVMAT2: NovaScreen (NVS) Transporter Assay for Norway rat Vesicular Monoamine Transporter (VMAT2), neurotransmitter transporter (AID 2283376);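 also: actives lower the bound radioligand signal below the DMSO level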
Records with an inconclusive call do not appear. The source made the active and inactive calls. The calls were made as follows: active = hit-call score of the fitted dose curve at least 0.9, where 1 is the maximum; inconclusive = response in the unintended direction; inactive = score below 0.9.
Select the matching outcome among Y (active), N (inactive)

Record excerpt, results attached:
{"Smiles representation": "CC[C@H](C)[C@H]1O[C@]2(C=C[C@@H]1C)C[C@@H]1C[C@@H](C/C=C(\\C)[C@@H](O[C@H]3C[C@H](OC)[C@@H](O[C@H]4C[C@H](OC)[C@@H](NC)[C@H](C)O4)[C@H](C)O3)[C@@H](C)/C=C/C=C3\\CO[C@@H]4[C@H](O)C(C)=C[C@@H](C(=O)O1)[C@]34O)O2", "Answer label": "Y"}
{"Smiles representation": "CCC(=O)Nc1ccc(Cl)c(Cl)c1", "Answer label": "Y"}
{"Smiles representation": "CCCOCC(=Nc1ccc(Cl)cc1C(F)(F)F)n1ccnc1", "Answer label": "N"}
{"Smiles representation": "Cc1cc(C2CC2)nc(Nc2ccccc2)n1", "Answer label": "N"}

Now for a further compound.
Prompt: // return assay outcome for C[Si](Cn1cncn1)(c1ccc(F)cc1)c1ccc(F)cc1
Completion: Y

###

Read-out: Transforming Growth Factor (TGFA), TGFA (gene 7039)
Assay: LTEA_HepaRG_TGFA: Life Technologies and Expression Analysis (LTEA) Assay for Transforming Growth Factor (TGFA) using HepaRG (AID 2283532)
Details: mRNA level, 48 h; actives raise or lower the signal
Active and inactive are the calls of the source. How the source made its calls: active means hit-call score of the fitted dose curve at least 0.9, where 1 is the maximum; inactive means score below 0.9.
# output must be one of yes for active, no for inactive

{"Compound": "CCOP(=O)(NC(C)C)Oc1ccc(SC)c(C)c1 (configuration not stated)", "Answer label": "no"}
{"Compound": "CC1=NNC(=O)N(/N=C/c2cccnc2)C1", "Answer label": "no"}
{"Compound": "O=C(O)c1cc(Oc2ccc(C(F)(F)F)cc2Cl)ccc1[N+](=O)[O-]", "Answer label": "no"}
{"Compound": "CCCCOC(=O)c1ccccc1C(=O)O", "Answer label": "no"}
{"Compound": "CN(C)NC(=O)CCC(=O)O", "Answer label": "no"}
{"Compound": "CCOP(=S)(OCC)OC(Cl)C(Cl)(Cl)Cl (configuration not stated)", "Answer label": "no"}
{"Compound": "CC1(C(=O)Nc2ccc(O)c(Cl)c2Cl)CCCCC1", "Answer label": "no"}
{"Compound": "CCOP(=S)(OCC)Oc1cc(C)nc(C(C)C)n1", "Answer label": "no"}

Prompt: // return assay outcome for CCOP(=S)(Oc1cnc(C(C)(C)C)nc1)OC(C)C (configuration not stated)
Completion: no

Prompt: Let us now turn to CCC(=NOC/C=C/Cl)C1=C(O)CC(C2CCOCC2)CC1=O (configuration not stated)
Completion: no

Prompt: Queued: CCCOCC(=Nc1ccc(Cl)cc1C(F)(F)F)n1ccnc1
Completion: yes

Prompt: // next record CCC(CC)Nc1c([N+](=O)[O-])cc(C)c(C)c1[N+](=O)[O-]
Completion: no

###

Experiment: APR_HepG2_MitoticArrest_24hr: Apredica 24-hour HepG2 Assay for Mitotic Arrest (AID 2282910)
Conditions: high-content imaging, actives raise or lower the signal
The source made the active and inactive calls. How the source made its calls: active means hit-call score of the fitted dose curve at least 0.9, where 1 is the maximum; inactive means score below 0.9.
Would you mind answering with one of these outcomes? 1 for active, -1 for inactive

Example results:
{"Compound": "CC(COc1ccc(Oc2ccccc2)cc1)Oc1ccccn1 (centres undefined)", "Answer label": -1}
{"Compound": "COP(=O)(OC)SCn1c(=O)oc2cc(Cl)cnc21", "Answer label": -1}
{"Compound": "CCOC(=O)COc1cc(-c2nn(C)c(OC(F)F)c2Cl)c(F)cc1Cl", "Answer label": -1}
{"Compound": "CCCCN(CC)c1c([N+](=O)[O-])cc(C(F)(F)F)cc1[N+](=O)[O-]", "Answer label": -1}
{"Compound": "CCOP(=S)(OCC)OC(Cl)C(Cl)(Cl)Cl (centres undefined)", "Answer label": -1}
{"Compound": "O=c1ccc(=O)[nH][nH]1", "Answer label": -1}
{"Compound": "S=C1NCCN1", "Answer label": -1}
{"Compound": "CCOP(=S)(OCC)Oc1ccc([N+](=O)[O-])cc1", "Answer label": -1}

Prompt: Write down the call the test reported for this compound. Item: CCCSP(=O)(OCC)Oc1ccc(Br)cc1Cl (centres undefined)
Completion: -1

Prompt: Also, CN(C)C(=O)Nc1cccc(C(F)(F)F)c1 please.
Completion: -1

Prompt: Would you kindly repeat that for CCC(=O)Nc1ccc(Cl)c(Cl)c1 ?
Completion: -1

Prompt: One more compound: CCCSP(=O)(OCC)SCCC
Completion: -1

Prompt: Then CNc1cnn(-c2cccc(C(F)(F)F)c2)c(=O)c1Cl ?
Completion: -1

Prompt: What about this compound? CCCOc1nn(C(=O)NS(=O)(=O)c2ccccc2C(=O)OC)c(=O)n1C
Completion: -1

Prompt: Also, CN(C)[C@@H]1C(=O)C(C(N)=O)=C(O)[C@@]2(O)C(=O)C3=C(O)c4c(O)cccc4[C@@](C)(O)[C@H]3[C@H](O)[C@@H]12 please.
Completion: -1

Prompt: Likewise for Cc1nn(-c2cc(NS(C)(=O)=O)c(Cl)cc2Cl)c(=O)n1C(F)F ?
Completion: -1

Prompt: Then what about the compound CON=C(C(=O)OC)c1ccccc1CON=C(C)c1cccc(C(F)(F)F)c1 ?
Completion: -1

Prompt: And then CC[C@H](C)[C@H]1O[C@]2(C=C[C@@H]1C)C[C@@H]1C[C@@H](C/C=C(\C)[C@@H](O[C@H]3C[C@H](OC)[C@@H](O[C@H]4C[C@H](OC)[C@@H](NC)[C@H](C)O4)[C@H](C)O3)[C@@H](C)/C=C/C=C3\CO[C@@H]4[C@H](O)C(C)=C[C@@H](C(=O)O1)[C@]34O)O2 , what is it?
Completion: 1

Prompt: // same read-out, input: C#CC(C)(C)NC(=O)c1cc(Cl)cc(Cl)c1
Completion: -1

Each recorded value in this set is attributed to PubChem BioAssay (EPA / NIEHS).
